Target: GST tagged IRAK4 (Homo sapiens (Human))
Sequence (Q9NWZ3 whole entry): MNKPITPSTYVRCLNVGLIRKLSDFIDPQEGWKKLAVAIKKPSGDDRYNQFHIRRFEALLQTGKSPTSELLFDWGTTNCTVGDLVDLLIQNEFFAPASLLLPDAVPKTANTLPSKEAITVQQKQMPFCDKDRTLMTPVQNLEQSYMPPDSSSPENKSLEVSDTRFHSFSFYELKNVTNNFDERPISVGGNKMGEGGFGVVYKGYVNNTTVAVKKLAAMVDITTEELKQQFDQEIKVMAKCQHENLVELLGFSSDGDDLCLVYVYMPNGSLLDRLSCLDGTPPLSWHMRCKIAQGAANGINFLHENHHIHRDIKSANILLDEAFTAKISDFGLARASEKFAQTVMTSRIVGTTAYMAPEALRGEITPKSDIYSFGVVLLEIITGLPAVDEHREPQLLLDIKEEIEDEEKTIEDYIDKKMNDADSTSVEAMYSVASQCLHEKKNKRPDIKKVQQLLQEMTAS
Structures can show the parent of a compound that is named as a salt.
Assign labels as follows, please: Criterion met for IC50 below 40 nM; Criterion not met for IC50 equal to or exceeding 40 nM.

[
  {
    "compound": "Cn1cc(NC(=O)c2ccc3cnc(N[C@@H]4CCCC[C@@H]4N)nn23)c(C(F)(F)F)n1 [Example 2, trifluoroacetate]",
    "tested.system": "GST tagged IRAK4 (Homo sapiens (Human))",
    "qualitative.label": "Criterion met"
  }
]

Please state whether IC50 is below 40 nM for Cn1cc(NC(=O)c2ccc3cnc(N[C@H]4CNC[C@@H](F)C4)nn23)c(C(F)(F)F)n1
Criterion met

Please let me know if N[C@@H]1[C@H](Nc2ncc3ccc(C(=O)Nc4cscc4Cl)n3n2)CCCC1(F)F [Example 126, trifluoroacetate] shows IC50 below 40 nM.
Criterion not met

Find out if reported IC50 for Cn1cc(NC(=O)c2ccc3cnc(N4C[C@@H]5CNC[C@H]4C5)nn23)c(C#N)n1 (single isomer, unassigned) is less than 40 nM
Criterion not met

Problem: For the compound N#Cc1sccc1NC(=O)c1ccc2cnc(N[C@@H]3CCCC(F)(F)[C@@H]3N)nn12 [Example 158, formate] , is IC50 under 40 nM?
Criterion not met

Strictly below 40 nM in IC50? Cn1cc(NC(=O)c2ccc3cnc(N[C@@H]4CCC(F)(F)C[C@@H]4N)nn23)c(C(F)F)n1 (single isomer, unassigned)
Criterion met

###

Counter-ions that a name gives are not always drawn.
For reference, IC50 measured on GST tagged IRAK4 (Homo sapiens (Human)):
Answer in nM, number only, no unit symbol.

[
  {
    "compound": "N#Cc1ccccc1NC(=O)c1ccc2cnc(N3CCCNCC3)nn12 [Example 59, trifluoroacetate]",
    "IC50 (nM)": 4270
  },
  {
    "compound": "Cn1cc(NC(=O)c2ccc3cnc(N4CCNCC4)nn23)c(C(F)(F)F)n1 [Example 4, trifluoroacetate]",
    "IC50 (nM)": 73
  },
  {
    "compound": "Cn1cc(NC(=O)c2ccc3cnc(NC4CCCCNC4)nn23)c(C(F)F)n1 (stereo not drawn) [Example 19, trifluoroacetate]",
    "IC50 (nM)": 1
  },
  {
    "compound": "N[C@@H]1[C@H](Nc2ncc3ccc(C(=O)Nc4ccccc4Br)n3n2)CCCC1(F)F [Example 106, trifluoroacetate]",
    "IC50 (nM)": 5810
  },
  {
    "compound": "O=C(Nc1ccsc1Cl)c1ccc2cnc(N3C[C@H]4CC[C@@H]3CN4)nn12 (single isomer, unassigned) [Example 54, trifluoroacetate]",
    "IC50 (nM)": 819
  }
]

Data point: Cn1cc(NC(=O)c2ccc3cnc(N[C@H]4CC(F)(F)CC[C@H]4N)nn23)c(C(F)(F)F)n1 (single isomer, unassigned) [Example 127, trifluoroacetate] ; IC50 = 17

###

Molecular target: UniProtKB Q9NWZ3
Where a name gives a salt, the structure may show the parent alone.
IC50 class ranges: category 1 = under 3 nM, category 2 = from 3 nM up to 300 nM, category 3 = 300 nM and over

Worked examples, 6 compounds total:
[
  {
    "compound": "Cn1cc(NC(=O)c2ccc3cnc(N4CC5CCC(C4)N5)nn23)c(C(F)(F)F)n1 [Example 82, trifluoroacetate]",
    "qualitative.label": "category 2"
  },
  {
    "compound": "N#Cc1cscc1NC(=O)c1ccc2cnc(N[C@@H]3CCCC[C@@H]3N)nn12 [Example 13, trifluoroacetate]",
    "qualitative.label": "category 2"
  },
  {
    "compound": "N[C@@H]1[C@H](Nc2ncc3ccc(C(=O)Nc4ccccc4C(F)(F)F)n3n2)CCCC1(F)F [Example 137, trifluoroacetate]",
    "qualitative.label": "category 3"
  },
  {
    "compound": "Cn1cc(NC(=O)c2ccc3cnc(N[C@H]4CNC[C@H](F)C4)nn23)c(C(F)(F)F)n1 [Example 162, trifluoroacetate]",
    "qualitative.label": "category 2"
  },
  {
    "compound": "O=C(Nc1ccsc1Cl)c1ccc2cnc(N3CCCNCC3)nn12 [Example 31, trifluoroacetate]",
    "qualitative.label": "category 3"
  },
  {
    "compound": "N#Cc1sccc1NC(=O)c1ccc2cnc(N[C@@H]3CCCNC3)nn12 [Example 146, trifluoroacetate]",
    "qualitative.label": "category 2"
  }
]

Lab note: sort N#Cc1sccc1NC(=O)c1ccc2cnc(N3CCCNCC3)nn12 [Example 43, trifluoroacetate] into the matching IC50 band.
category 3

Any idea which band Cn1cc(NC(=O)c2ccc3cnc(N4CC5CCC(C4)N5)nn23)c(C(F)F)n1 [Example 83, trifluoroacetate] is in?
category 1

Class for Cn1cc(NC(=O)c2ccc3cnc(N[C@@H]4CCCC[C@@H]4O)nn23)c(C(F)(F)F)n1 [Example 3, trifluoroacetate] ?
category 3

Categorize the following entry: Cn1cc(NC(=O)c2ccc3cnc(N4C[C@H](N)C[C@@H](F)C4)nn23)c(C(F)(F)F)n1 [Example 149, trifluoroacetate]
category 1

Please let me know in which category the item N#Cc1sccc1NC(=O)c1ccc2cnc(N[C@@H]3CCCC[C@@H]3N)nn12 [Example 21, trifluoroacetate] belongs.
category 1

Form: Item = Cn1cc(NC(=O)c2ccc3cnc(N[C@@H]4CCCC[C@@H]4N)nn23)c(C#N)n1 [Example 35, trifluoroacetate] ; Class = ?
category 1

Hi, small favor: classify Cn1cc(NC(=O)c2ccc3cnc(N4C5CCC4CNC5)nn23)c(C(F)F)n1 [Example 121, trifluoroacetate] by its IC50 when you get a moment.
category 1
